Numbers sourced from paper PMC9409388.

Entries and their Kb values follow.
- Tested on: KRAS (DNA, G4) GGGCGGTGTGGGAAGAGGGAAGAGGGGGAGG
- assay.overview: thiazole orange displacement (G4-FID)
- assay.context: 100 mM KCl; 10 mM sodium cacodylate pH 7.3, 18 °C; thiazole orange displaced; from DC50, assumed TO Kb 2.5 × 10^6

A selection of reference data follows.
| query.smiles | tested.target | Kb |
| --- | --- | --- |
| O=c1c(O)c(-c2ccc(O)c(O)c2)oc2cc(O)cc(O)c12 | KRAS (DNA, G4) GGGCGGTGTGGGAAGAGGGAAGAGGGGGAGG | 1.72 ± 0.25 × 10^6 M^-1 |
| O=C(O[C@@H]1Cc2c(O)cc(O)cc2O[C@@H]1c1cc(O)c(O)c(O)c1)c1cc(O)c(O)c(O)c1 | KRAS (DNA, G4) GGGCGGTGTGGGAAGAGGGAAGAGGGGGAGG | 1.62 ± 0.23 × 10^6 M^-1 |
| CC1=CC(=O)C(C(C)C)=CC1=O | KRAS (DNA, G4) GGGCGGTGTGGGAAGAGGGAAGAGGGGGAGG | 1.52 ± 0.22 × 10^6 M^-1 |
| C[n+]1cc2c3c(ccc2c2ccc4cc5c(cc4c21)OCO5)OCO3 | KRAS (DNA, G4) GGGCGGTGTGGGAAGAGGGAAGAGGGGGAGG | 0.93 ± 0.13 × 10^6 M^-1 |

Kindly review the next compound as well.
Ask: Report measured Kb; entry is O=c1c(O)c(-c2ccc(O)cc2)oc2cc(O)cc(O)c12
Reply: 1.63 ± 0.23 × 10^6 M^-1

---

- Tested on: BCL2 (DNA, G4) AGGGGCGGGCGCGGGAGGAAGGGGGCGGGAGCGGGGC
- assay.overview: thiazole orange displacement (G4-FID)
- assay.context: 100 mM KCl; 10 mM sodium cacodylate pH 7.3, 18 °C; 1 µM thiazole orange displaced, 0.5 µM DNA
# DC50 listing for each entry below

Field: example entries. Status: answers known.
| query.smiles | tested.target | readout.label | reported.value |
| --- | --- | --- | --- |
| O=C(O[C@@H]1Cc2c(O)cc(O)cc2O[C@@H]1c1cc(O)c(O)c(O)c1)c1cc(O)c(O)c(O)c1 | BCL2 (DNA, G4) AGGGGCGGGCGCGGGAGGAAGGGGGCGGGAGCGGGGC | DC50 | 960 ± 140 nM |
| C[n+]1cc2c3c(ccc2c2ccc4cc5c(cc4c21)OCO5)OCO3 | BCL2 (DNA, G4) AGGGGCGGGCGCGGGAGGAAGGGGGCGGGAGCGGGGC | DC50 | 850 ± 120 nM |

Ask: Identify measured DC50 corresponding to O=c1c(O)c(-c2ccc(O)cc2)oc2cc(O)cc(O)c12
Reply: 2000 ± 280 nM

Ask: Give DC50 for the following molecule: O=c1c(O)c(-c2ccc(O)c(O)c2)oc2cc(O)cc(O)c12
Reply: 630 ± 90 nM

Ask: Report DC50, nothing else, for this molecule: CC1=CC(=O)C(C(C)C)=CC1=O
Reply: 1220 ± 100 nM

---

- Tested on: Tel (DNA, G4) GGGTTAGGGTTAGGGTTAGGGTTA
- assay.overview: thiazole orange displacement (G4-FID)
- assay.context: 100 mM KCl; 10 mM sodium cacodylate pH 7.3, 18 °C; 1 µM thiazole orange displaced, 0.5 µM DNA
readout.label: DC50 (nM)
Provide only the numeric value, understood in nM.

Ask: Assign DC50 to the following record: C[n+]1cc2c3c(ccc2c2ccc4cc5c(cc4c21)OCO5)OCO3
Reply: 8420

---

Readings of Kb for the listed compounds
- Tested on: VEGF (VEGFA) (DNA, G4) GGGGCGGGCCGGGGGCGGGG
- assay.overview: thiazole orange displacement (G4-FID)
- assay.context: 100 mM KCl; 10 mM sodium cacodylate pH 7.3, 18 °C; thiazole orange displaced; from DC50, assumed TO Kb 2.5 × 10^6

Use these answered entries as a reference point.
| query.smiles | reported.value |
| --- | --- |
| CC1=CC(=O)C(C(C)C)=CC1=O | 1.50 ± 0.21 × 10^6 M^-1 |
| C[n+]1cc2c3c(ccc2c2ccc4cc5c(cc4c21)OCO5)OCO3 | 0.86 ± 0.12 × 10^6 M^-1 |

Ask: Give Kb for O=c1c(O)c(-c2ccc(O)cc2)oc2cc(O)cc(O)c12 tested on VEGF (VEGFA) (DNA, G4) GGGGCGGGCCGGGGGCGGGG.
Reply: 2.09 ± 0.30 × 10^6 M^-1

Ask: GET Kb where system = VEGF (VEGFA) (DNA, G4) GGGGCGGGCCGGGGGCGGGG and item = O=C(O[C@@H]1Cc2c(O)cc(O)cc2O[C@@H]1c1cc(O)c(O)c(O)c1)c1cc(O)c(O)c(O)c1
Reply: 1.75 ± 0.25 × 10^6 M^-1

Ask: Please tell me the measured Kb for O=c1c(O)c(-c2ccc(O)c(O)c2)oc2cc(O)cc(O)c12 ; system: VEGF (VEGFA) (DNA, G4) GGGGCGGGCCGGGGGCGGGG.
Reply: 3.10 ± 0.44 × 10^6 M^-1

---

- Test system: KRAS (DNA, G4) GGGCGGTGTGGGAAGAGGGAAGAGGGGGAGG
- assay.overview: thiazole orange displacement (G4-FID)
- assay.context: 100 mM KCl; 10 mM sodium cacodylate pH 7.3, 18 °C; 1 µM thiazole orange displaced, 0.5 µM DNA
readout.label: DC50 (µM)
Please state the figure in µM; there is no need to write the unit.

Here is how some compounds turned out for DC50.
| query.smiles | DC50, µM |
| --- | --- |
| O=c1c(O)c(-c2ccc(O)cc2)oc2cc(O)cc(O)c12 | 2.15 |
| O=C(O[C@@H]1Cc2c(O)cc(O)cc2O[C@@H]1c1cc(O)c(O)c(O)c1)c1cc(O)c(O)c(O)c1 | 2.16 |
| O=c1c(O)c(-c2ccc(O)c(O)c2)oc2cc(O)cc(O)c12 | 2.03 |
| C[n+]1cc2c3c(ccc2c2ccc4cc5c(cc4c21)OCO5)OCO3 | 3.76 |

Ask: Fill: DC50 (KRAS (DNA, G4) GGGCGGTGTGGGAAGAGGGAAGAGGGGGAGG) for this compound CC1=CC(=O)C(C(C)C)=CC1=O
Reply: 2.30

---

- Test system: BCL2 (DNA, G4) AGGGGCGGGCGCGGGAGGAAGGGGGCGGGAGCGGGGC
- assay.overview: thiazole orange displacement (G4-FID)
- assay.context: 100 mM KCl; 10 mM sodium cacodylate pH 7.3, 18 °C; thiazole orange displaced; from DC50, assumed TO Kb 2.5 × 10^6
Reported Kb values for the following compounds.

Here is how some compounds turned out for Kb.
| query.smiles | Kb |
| --- | --- |
| CC1=CC(=O)C(C(C)C)=CC1=O | 2.87 ± 0.41 × 10^6 M^-1 |
| C[n+]1cc2c3c(ccc2c2ccc4cc5c(cc4c21)OCO5)OCO3 | 4.12 ± 0.59 × 10^6 M^-1 |
| O=c1c(O)c(-c2ccc(O)c(O)c2)oc2cc(O)cc(O)c12 | 5.56 ± 0.79 × 10^6 M^-1 |

Ask: Assign Kb to the following record: O=C(O[C@@H]1Cc2c(O)cc(O)cc2O[C@@H]1c1cc(O)c(O)c(O)c1)c1cc(O)c(O)c(O)c1
Reply: 3.65 ± 0.52 × 10^6 M^-1

Ask: Quick one: give measured Kb for O=c1c(O)c(-c2ccc(O)cc2)oc2cc(O)cc(O)c12
Reply: 1.75 ± 0.25 × 10^6 M^-1

---

Recorded DC50 for the following molecules
- System: WNT1 (DNA, G4) GGGGGCCACCGGGCAGGGGGCGGGGG
- assay.overview: thiazole orange displacement (G4-FID)
- assay.context: 100 mM KCl; 10 mM sodium cacodylate pH 7.3, 18 °C; 1 µM thiazole orange displaced, 0.5 µM DNA
The number alone won't do; follow it with the unit.

Completed entries (count: 2):
| query.smiles | DC50 |
| --- | --- |
| O=c1c(O)c(-c2ccc(O)c(O)c2)oc2cc(O)cc(O)c12 | 1.69 ± 0.24 µM |
| O=C(O[C@@H]1Cc2c(O)cc(O)cc2O[C@@H]1c1cc(O)c(O)c(O)c1)c1cc(O)c(O)c(O)c1 | 1.27 ± 0.18 µM |

Ask: Report value: DC50, system: WNT1 (DNA, G4) GGGGGCCACCGGGCAGGGGGCGGGGG, molecule: CC1=CC(=O)C(C(C)C)=CC1=O
Reply: 1.29 ± 0.19 µM

Ask: Provide the reported DC50 (system: WNT1 (DNA, G4) GGGGGCCACCGGGCAGGGGGCGGGGG) for O=c1c(O)c(-c2ccc(O)cc2)oc2cc(O)cc(O)c12
Reply: 1.16 ± 0.16 µM

Ask: Give DC50; test system WNT1 (DNA, G4) GGGGGCCACCGGGCAGGGGGCGGGGG; molecule C[n+]1cc2c3c(ccc2c2ccc4cc5c(cc4c21)OCO5)OCO3
Reply: 1.24 ± 0.17 µM
